// data source = PubChem BioAssay AID1345085

Tested on: HeLa
Assay explanation: Confirmatory qHTS for gynecologic anti-cancer compounds from libraries of approved drugs and bioactive compounds; further: nearly all actives have a fitted effect of over 55% in size
Run conditions: gynecologic cancer cell panel viability, ATPlite luminescence, 48 h; series mostly up to 57.6 µM
Records with an inconclusive call do not appear. Active and inactive are the calls of the source. The call rests on the fitted dose curve; in most records, active means well fitted cell-killing curve with a large enough effect; inconclusive means small, poorly fitted or top-dose-only effect, or effect the other way; inactive means no such curve, though single readings can be large or run the other way.
Hello, when you answer, please use one of the following outcomes: YES for active, NO for inactive

Field: example entries. Status: answers known.
CN1CCCC(n2nc(Cc3ccc(Cl)cc3)c3ccccc3c2=O)CC1 (centres undefined) :: NO
CCc1c2c(nc3ccc(OC(=O)N4CCC(N5CCCCC5)CC4)cc13)-c1cc3c(c(=O)n1C2)COC(=O)[C@]3(O)CC :: NO
CCN(CC)CCNC(=O)c1c(C)[nH]c(/C=C2\C(=O)Nc3ccc(F)cc32)c1C :: YES

Task: What classification did COc1c(C)c2c(c(O)c1C/C=C(\C)CCC(=O)OCCN1CCOCC1)C(=O)OC2 end up with in this test?
Output: YES

Task: What classification did CCn1c(-c2nonc2N)nc2c(C#CC(C)(C)O)ncc(OCC3CCCNC3)c21 (centres undefined) end up with in this test?
Output: YES

Task: What classification did CCN[C@H]1C[C@H](C)S(=O)(=O)c2sc(S(N)(=O)=O)cc21 end up with in this test?
Output: NO

----------
Tested on: HeLa
Assay explanation: Confirmatory qHTS for gynecologic anti-cancer compounds from libraries of approved drugs and bioactive compounds; further: nearly all actives have a fitted effect of over 55% in size
Run conditions: gynecologic cancer cell panel viability, ATPlite luminescence, 48 h; series mostly up to 57.6 µM
Records with an inconclusive call do not appear. Activity calls are given as the source filed them. The call rests on the fitted dose curve; in most records, active means well fitted cell-killing curve with a large enough effect; inconclusive means small, poorly fitted or top-dose-only effect, or effect the other way; inactive means no such curve, though single readings can be large or run the other way.
Hello, when you answer, please use one of the following outcomes: True = active, False = inactive

O=C(Nc1cn[nH]c1-c1nc2ccc(CN3CCOCC3)cc2[nH]1)NC1CC1 :: True
Cc1nc(NC(=O)N2CCCC2C(N)=O)sc1-c1ccnc(C(C)(C)C(F)(F)F)c1 (stereo not drawn) :: True
CCC1=CC2CN(C1)Cc1c([nH]c3ccccc13)[C@@](C(=O)OC)(c1cc3c(cc1OC)N(C)[C@H]1[C@@](O)(C(=O)OC)[C@H](OC(C)=O)[C@]4(CC)C=CCN5CC[C@]31[C@@H]54)C2 (stereo partly drawn) :: True
COc1cc(N2CCC(N)CC2)ccc1Nc1ncc(Cl)c(-c2c[nH]c3ccccc23)n1 :: True
O=c1c(-c2ccc(O)cc2)coc2cc(O)cc(O)c12 :: True
COc1cc(N2CCC(N3CCN(C)CC3)CC2)ccc1Nc1ncc(Cl)c(Nc2ccccc2S(=O)(=O)C(C)C)n1 :: True

Task: What classification did COc1cccc2cc(-c3nc(C4CCC(C(=O)O)CC4)n4ncnc(N)c34)[nH]c12 (stereo not drawn) end up with in this test?
Output: True

Task: What classification did CCCC(Nc1nc(-c2ccc(NC(=O)NCC)c(OC)c2)ncc1C)c1cccnc1 (stereo not drawn) end up with in this test?
Output: True

Task: What classification did CCN(CC)CCOc1ccc(/C(=C(\Cl)c2ccccc2)c2ccccc2)cc1 end up with in this test?
Output: True

----------
System: HeLa
Assay explanation: Confirmatory qHTS for gynecologic anti-cancer compounds from libraries of approved drugs and bioactive compounds; further: nearly all actives have a fitted effect of over 55% in size
Run conditions: gynecologic cancer cell panel viability, ATPlite luminescence, 48 h; series mostly up to 57.6 µM
Records with an inconclusive call do not appear. Active and inactive are the calls of the source. The call rests on the fitted dose curve; in most records, active means well fitted cell-killing curve with a large enough effect; inconclusive means small, poorly fitted or top-dose-only effect, or effect the other way; inactive means no such curve, though single readings can be large or run the other way.
Hello, when you answer, please use one of the following outcomes: active, inactive

CC(C)C[C@H](NC(=O)[C@H](Cc1ccccc1)NC(=O)c1cnccn1)B(O)O :: active
CN1CCN(Cc2ccc(NC(=O)Nc3ccc(Oc4cc(NC(=O)C5CC5)ncn4)cc3)cc2C(F)(F)F)CC1 :: active
Cn1cnc2c(F)c(Nc3ccc(Br)cc3Cl)c(C(=O)NOCCO)cc21 :: inactive
O=C(c1ccc(/C=C/c2n[nH]c3ccccc23)cc1)N1CCNCC1 :: active
Nc1ccccc1NC(=O)c1ccc(CNC(=O)OCc2cccnc2)cc1 :: active
CC(=O)c1cnc2ccc(-c3cc(Cl)c(O)c(Cl)c3)nc2c1NC1CCC(CN(C)C)CC1 (stereo not drawn) :: active

Task: What classification did CC(C)C[C@H](NC(=O)[C@@H](NC(=O)c1cccc(-c2ccccc2)n1)[C@@H](C)O)B(O)O end up with in this test?
Output: active

Task: What classification did CCCCN(CCCC)CC(O)c1cc(Cl)cc2c1-c1ccc(Cl)cc1/C2=C/c1ccc(Cl)cc1 (stereo not drawn) end up with in this test?
Output: inactive

Task: What classification did CNCc1ccc(-c2[nH]c3cc(F)cc4c3c2CCNC4=O)cc1 end up with in this test?
Output: inactive

Task: What classification did CCCc1nn(C)c2c(=O)[nH]c(-c3cc(S(=O)(=O)N4CCN(C)CC4)ccc3OCC)nc12 end up with in this test?
Output: inactive

Task: What classification did Cc1cc(Nc2nc(N[C@@H](C)c3ncc(F)cn3)ncc2Cl)n[nH]1 end up with in this test?
Output: active

Task: What classification did CNC1CCC(N(Cc2cccc(-c3ccncc3)c2)C(=O)c2sc3ccccc3c2Cl)CC1 (stereo not drawn) end up with in this test?
Output: active

Task: What classification did CCN1CCN(Cc2ccc(Nc3ncc(F)c(-c4cc(F)c5nc(C)n(C(C)C)c5c4)n3)nc2)CC1 end up with in this test?
Output: active

Task: What classification did CNc1nccc(-c2cccnc2Oc2cc(C(=O)Nc3cccc(C(F)(F)F)c3)ccc2C)n1 end up with in this test?
Output: active

----------
Test system: HeLa
Assay explanation: Confirmatory qHTS for gynecologic anti-cancer compounds from libraries of approved drugs and bioactive compounds; further: nearly all actives have a fitted effect of over 55% in size; further: potency means the concentration at half of the fitted maximal effect
Run conditions: gynecologic cancer cell panel viability, ATPlite luminescence, 48 h; series mostly up to 57.6 µM
Results filed as inconclusive are left out. The source made the active and inactive calls. Calls come from the whole dose curve; as a rule, active = well fitted cell-killing curve with a large enough effect; inconclusive = small, poorly fitted or top-dose-only effect, or effect the other way; inactive = no such curve, though single readings can be large or run the other way.
Quantity: Potency

Solved cases (2 shown):
Nc1ccc(-c2ccc3ncc4ccc(=O)n(-c5cccc(C(F)(F)F)c5)c4c3c2)cn1 :: 0.385 µM (active)
COc1cccc2c1C(=O)c1c(O)c3c(c(O)c1C2=O)C[C@@](O)(C(=O)CO)C[C@@H]3O[C@H]1C[C@H](N)[C@H](O)[C@H](C)O1 :: 6.85 µM (active)

Okay, now this compound:
Entry O=C(/C=C/c1cccc(S(=O)(=O)Nc2ccccc2)c1)NO ; Potency = 5.3 µM (active)

----------
System: HeLa
Assay explanation: Confirmatory qHTS for gynecologic anti-cancer compounds from libraries of approved drugs and bioactive compounds; further: nearly all actives have a fitted effect of over 55% in size
Run conditions: gynecologic cancer cell panel viability, ATPlite luminescence, 48 h; series mostly up to 57.6 µM
Results filed as inconclusive are left out. Calls of active or inactive are those of the source. Calls come from the whole dose curve; as a rule, active = well fitted cell-killing curve with a large enough effect; inconclusive = small, poorly fitted or top-dose-only effect, or effect the other way; inactive = no such curve, though single readings can be large or run the other way.
Hello, when you answer, please use one of the following outcomes: 1 = active, 0 = inactive

Field: example entries. Status: answers known.
CC(C)CC(=O)Nc1n[nH]c2c1CN(C(=O)C1CCN(C)CC1)C2(C)C :: 1
Cc1cnc(Nc2cccc(CN3CCOCC3)c2)nc1Nc1cccc(S(=O)(=O)NC(C)(C)C)c1 :: 1
CC1(C)[C@@H](O)CC[C@]2(C)[C@H]3C(=O)C=C4[C@@H]5C[C@@](C)(C(=O)O)CC[C@]5(C)CC[C@@]4(C)[C@]3(C)CC[C@@H]12 :: 0

Task: What classification did CC(C)C[C@H](NC(=O)[C@H](CCc1ccccc1)NC(=O)CN1CCOCC1)C(=O)N[C@@H](Cc1ccccc1)C(=O)N[C@@H](CC(C)C)C(=O)[C@@]1(C)CO1 end up with in this test?
Output: 1

Task: What classification did Cn1cnc([N+](=O)[O-])c1Sc1ncnc2nc[nH]c12 end up with in this test?
Output: 1

----------
Test system: HeLa
Assay explanation: Confirmatory qHTS for gynecologic anti-cancer compounds from libraries of approved drugs and bioactive compounds; further: nearly all actives have a fitted effect of over 55% in size
Run conditions: gynecologic cancer cell panel viability, ATPlite luminescence, 48 h; series mostly up to 57.6 µM
Results filed as inconclusive are left out. Calls of active or inactive are those of the source. Calls follow the shape of the dose curve; as a rule, active = well fitted cell-killing curve with a large enough effect; inconclusive = small, poorly fitted or top-dose-only effect, or effect the other way; inactive = no such curve, though single readings can be large or run the other way.
Hello, when you answer, please use one of the following outcomes: active, inactive

Task: What classification did CC(C)Oc1ccc2c(=O)c(-c3ccccc3)coc2c1 end up with in this test?
Output: active

Task: What classification did Cc1ccc(C(=O)Nc2cccc(C(F)(F)F)c2)cc1-c1ccc2nc(NCCN3CCOCC3)ncc2c1 end up with in this test?
Output: active

Task: What classification did CCc1nc(C(N)=O)c(Nc2ccc(N3CCC(N4CCN(C)CC4)CC3)c(OC)c2)nc1NC1CCOCC1 end up with in this test?
Output: active

Task: What classification did Cn1cc(-c2[nH]c3cc(NC(=O)[C@H](N)C4CCCCC4)cc4c3c2C=NNC4=O)cn1 end up with in this test?
Output: active

Task: What classification did CC(C)n1c(/C=C/[C@@H](O)C[C@@H](O)CC(=O)O)c(-c2ccc(F)cc2)c2ccccc21 end up with in this test?
Output: active

----------
Test system: HeLa
Assay explanation: Confirmatory qHTS for gynecologic anti-cancer compounds from libraries of approved drugs and bioactive compounds; further: nearly all actives have a fitted effect of over 55% in size
Run conditions: gynecologic cancer cell panel viability, ATPlite luminescence, 48 h; series mostly up to 57.6 µM
Records with an inconclusive call do not appear. Active and inactive are the calls of the source. The call rests on the fitted dose curve; in most records, active means well fitted cell-killing curve with a large enough effect; inconclusive means small, poorly fitted or top-dose-only effect, or effect the other way; inactive means no such curve, though single readings can be large or run the other way.
Hello, when you answer, please use one of the following outcomes: true for active, false for inactive

Task: What classification did Cc1ccc(C(N)=O)cc1Nc1nccc(-c2cn(C(C)C)c3cnccc23)n1 end up with in this test?
Output: true

Task: What classification did Cc1ccc(C(=O)N(CCCN)C(c2oc3cc(Cl)ccc3c(=O)c2Cc2ccccc2)C(C)C)cc1 (centres undefined) end up with in this test?
Output: true
